target_entity: T1, Human ROR1 (receptor tyrosine kinase-like orphan receptor 1) (human, UniProt Q01973 30-937)
T1 construct: also called hROR1; K562/ROR1
test_method_notes: flow cytometry on ROR1-expressing K562 and CHOK1 cells (n = 1)
EC50 values for the binders below.

binder: Clone V224 (VHH, human VH-only single-domain antibody, no VL) VHH: QVQLVESGGGLVKPGGSLRLSCAASGFTFINAWMSWVRQAPGKGLEWVGRIKSKTDGGTTDYAAPVKGRFTISRDDSKNTLYLQMNSLKTEDTAVYYCARTYSSSWYESLLFDYWGQGTLVTVSS
EC50 / nM: 46.2
//
binder: Clone V282 (VHH, human VH-only single-domain antibody, no VL) VHH: EVQLVESGGGLVQPGGSLRLSCAASGFTFSSYWMSWVRQAPGKGLEWVANIKQDGSEKYYVDSVKGRFTISRDNAKNSLYLQMNSLRAEDTAVYYCARVRGSEYYFDYWGQGTLVTVSS
EC50 / nM: 13.1
//
binder: Clone V278 (VHH, human VH-only single-domain antibody, no VL) VHH: QITLKESGGGLVQPGGSLRLSCAASGFTFSSYAMSWVRQAPGKGLEWVSAISGSGGSTYYADSVKGRFTISRDNSKNTLYLQMNSLRAEDTAVYYCAKERSRWGDNWFDPWGQGTLVTVSS
EC50 / nM: 31.5
//
binder: Clone V312 (VHH, human VH-only single-domain antibody, no VL) VHH: EVQLVESGGGLVKPRGSLRLSCAASGFTFSNAWMSWVRQAPGKGLEWVGRIKSKTDGGTTDYAAPVKGRFTISRDDSKNTLYLQMNSLKTEDTAVYYCARTSRGRFLEWLLFDYWGQGTLVTVSS
EC50 / nM: 23.7
//
binder: Clone V163 (VHH, human VH-only single-domain antibody, no VL) VHH: QVQLVESGGGLVKPGGSLRLSCAASGFTFSNAWMSWVRQAPGKGLEWVGRIKSKTDGGTTDYAAPVKGRFTISRDDSKNTLYLQMNSLKTEDTAVYYCARQGDSSSWYVEVYYFDYWGQGTLVTVSS
EC50 / nM: 92.9
//
binder: Clone V397 (VHH, human VH-only single-domain antibody, no VL) VHH: QITLKESGGGLVQPGGSLRLSCAASGFTFSNAWMSWVRQAPGKGLEWVGRIKSKTDGGTTDYAAPLKGRFTISRDDSKNTLYLQMNSLKTEDTAVYYCARAKGLWFGESYYFDYWGQGTLVTVSS
EC50 / nM: 49.7
//
binder: Clone V331 (VHH, human VH-only single-domain antibody, no VL) VHH: QVQLQQWGAGLLKPSETLSLTCAVYGGSFSGYYWSWIRQPPGKGLEWIGKINHSGSTNYNPSLKSRVTISVDTSKNQFSLKLSSVTAADTAVYYCARGQIAAHVWGWFDPWGQGTLVTVSS
EC50 / nM: 18.8
//
binder: Clone V316 (VHH, human VH-only single-domain antibody, no VL) VHH: EVQLVESGGGLVRPGGSLRLSCAASGLTFSRTWMSWVRQAPGKGLEWVASINDDGSEKYYVDSVKGRFTISRDNARNSLYLQMNRLRAEDTAVYYCARVDSERFLEWYYFDYWGQGTLVTVSS
EC50 / nM: 28.7
//
binder: Clone V420 (VHH, human VH-only single-domain antibody, no VL) VHH: QVQLVESGGGLVQPGGSLRLSCAASGFTFSSYWMSWVRQAPGKGLEWVANIKQDGSEKYYVDSVKGRFTISRDNAKNSLYLQMNSLRAEDTAVYYCARVNGGEYYFDYWGQGTLVTVSS
EC50 / nM: 8
